System under test: T1, 4H678-AA
T1 chain: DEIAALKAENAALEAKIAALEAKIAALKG
Experiment: two-hybrid library CCmax;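 also: natural log of median RNA to DNA barcode read ratio; higher means stronger binding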
Reported conditions: mean of both orientations
Measurement name: interaction score

DKNAALKAKIAALKAENAALEAEIAALEG [4H3921-AA] = -1.4
DEIAALEAEIAALEAKIAALKAKNAALKG [4H48-AA] = -0.779
DEIAALEAKNAALKAEIAALEAKIAALKG [4H454-AA] = 2.11
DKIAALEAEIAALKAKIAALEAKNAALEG [4H2151-AA] = -1.37

a: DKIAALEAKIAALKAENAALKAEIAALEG [4H2393-AA]
b: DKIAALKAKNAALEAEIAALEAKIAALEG [4H2949-AA]
c: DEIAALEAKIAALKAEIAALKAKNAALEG [4H335-AA]
Please list the entries, largest interaction score first. Submit the labels in the order that the ranking request calls for.
b, a, c
(b: 1.69, a: -0.574, c: -1.15)

a: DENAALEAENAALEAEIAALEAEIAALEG [4H1153-AA]
b: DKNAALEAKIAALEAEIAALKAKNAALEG [4H3343-AA]
c: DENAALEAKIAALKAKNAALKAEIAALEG [4H1401-AA]
Arrange the 3 binders by rising interaction score, starting with the smallest. Submit the labels in the order that the ranking request calls for.
b, a, c
(b: -1.08, a: -0.487, c: -0.21)

I: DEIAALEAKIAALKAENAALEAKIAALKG [4H342-AA]
II: DEIAALKAEIAALKAENAALKAKIAALEG [4H605-AA]
III: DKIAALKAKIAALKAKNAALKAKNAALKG [4H2944-AA]
Please list the entries, largest interaction score first. Submit the labels in the order that the ranking request calls for.
I, II, III
